Reference source: patent US10287617B2

- method.description: Cytotoxicity assay (resazurin, 72 h)
- Type: cell-based
- condition.notes: African green monkey, Vero cells; 72 h
measure: IC50 at 72 h

compound: CN(C)c1cc2[nH]c(C3CCCCC3)nc2cc1NC(=O)c1ccc(OC(F)(F)F)cc1F [SB-P17G-A38]
value.reported: > 200 µg/mL

###

- Tested on: M. tuberculosis Erdman
- Type: in vivo
- condition.notes: IP, 50 mg/kg b.i.d. (Inh q.d.), day 15

compound: CN(C)c1cc2[nH]c(C3CCCCC3)nc2cc1NC(=O)c1ccc(OC(F)(F)F)cc1F [SB-P17G-A38]
unit.of.measure: Log10 CFU
Log10CFU Lungs: 0.39
--
compound: CN(C)c1cc2[nH]c(C3CCCCC3)nc2cc1NC(=O)c1ccc(C(F)(F)F)cc1F [SB-P17G-A42]
unit.of.measure: Log10 CFU
Log10CFU Lungs: 0.91
--
compound: NNC(=O)c1ccncc1 [Isoniazid, reference compound]
unit.of.measure: Log10 CFU
Log10CFU Lungs: 0.12
--
compound: CN(C)c1cc2[nH]c(C3CCCCC3)nc2cc1NC(=O)c1ccc(OC(F)(F)F)c(F)c1F [SB-P17G-A33]
unit.of.measure: Log10 CFU
Log10CFU Lungs: 4.59
